Recorded inhibition values for a group of compounds are listed next.
# Study Target: RAC-beta serine/threonine-protein kinase (Homo sapiens) (UniProt P31751)
# Sequence (P31751 whole entry): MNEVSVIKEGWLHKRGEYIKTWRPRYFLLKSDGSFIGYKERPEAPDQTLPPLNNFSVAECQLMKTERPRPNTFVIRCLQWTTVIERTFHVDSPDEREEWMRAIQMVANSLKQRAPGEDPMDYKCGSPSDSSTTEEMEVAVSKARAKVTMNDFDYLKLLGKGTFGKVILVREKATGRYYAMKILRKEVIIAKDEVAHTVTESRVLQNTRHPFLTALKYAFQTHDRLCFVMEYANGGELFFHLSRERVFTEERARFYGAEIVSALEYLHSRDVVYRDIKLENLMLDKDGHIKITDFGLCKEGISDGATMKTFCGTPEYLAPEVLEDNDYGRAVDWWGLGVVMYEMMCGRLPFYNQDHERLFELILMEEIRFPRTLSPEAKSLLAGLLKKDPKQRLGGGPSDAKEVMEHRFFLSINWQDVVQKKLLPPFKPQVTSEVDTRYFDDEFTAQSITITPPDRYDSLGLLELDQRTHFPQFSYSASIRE
# Study Conditions: at 1 µM
# Description: GSK_PKIS: AKT2 mean inhibition at 1 uM [Nanosyn]

Compound	inhibition (%)
CCn1c(-c2nonc2N)nc2c(C#CC(C)(C)O)nc(OC[C@@H](N)c3ccccc3)cc21	91.1
NC(=O)c1cccc(Nc2nccc(Nc3cccc4[nH]ncc34)n2)c1	-1.08
CN(C)c1cc2c(Nc3ccc4nc(Cc5ccccc5)[nH]c4c3)ncnc2cn1	2.71
COc1cc2c(cc1Nc1nc(N3CCc4ccccc43)c3cc[nH]c3n1)N(C(=O)CN(C)C)CC2	1.42
NCc1ccc(-c2nc(-c3ccc(Cl)c(O)c3)c(-c3ccncc3)[nH]2)cc1	-0.26
COc1ccc(COc2ccc(Cc3cnc(N)nc3N)cc2OC)cc1	-0.17
[O-][S+]1CCN(Cc2ccc(-c3ccc4ncnc(Nc5ccc(OCc6ccccc6)c(F)c5)c4c3)o2)CC1	0.9
CCn1c(-c2nonc2N)nc2c(N3CCCC3)nccc21	-0.45
Cc1cccc(-c2n[nH]cc2-c2ccc3ncccc3n2)n1	-0.22
COc1cc(C=NNc2ncnc3c2cnn3-c2ccccc2)ccc1O	-2.91
CCn1c(-c2nonc2N)nc2cnc(Oc3cccc(NC(=O)c4ccc(OCCN5CCOCC5)cc4)c3)cc21	7.74
CCn1c(-c2nonc2N)nc2cncc(C(=O)N3CC[C@H](N)C3)c21	13.3
COc1ccc(-c2ccncc2)cc1C(N)=O	2.06
O=C1NC(=O)C(c2ccc(Cl)cc2)=C1Nc1ccc(Cl)c(C(=O)O)c1	-1.58
CC1=C(C(=O)Nc2ccc3[nH]ncc3c2)C(c2ccc(Cl)c(Cl)c2)CC(=O)N1 (configuration not stated)	1.63
Cc1nn(C)c2cc(N(C)c3ccnc(Nc4cccc(S(N)(=O)=O)c4)n3)ccc12	2.15
O=C1NC(=O)C(c2ccccc2Cl)=C1Nc1cccc(O)c1	1.48
CS(=O)(=O)CCN(CC#N)Cc1ccc(-c2ccc3ncnc(Nc4ccc(OCc5cccc(F)c5)c(Cl)c4)c3c2)o1	-2.91
COc1cc2ncn(-c3cc(OCc4ccccc4Cl)c(C(N)=O)s3)c2cc1OC	0.92
Cc1ccc(C(=O)NC2CCCCC2)cc1-c1ccc(C(=O)NCC2CC2)cc1	1.72
COc1cc(C)c(NC(=O)CN(C)C)cc1Nc1nc(Nc2cccc(F)c2C(N)=O)c2cc[nH]c2n1	1.17
c1cnn2ncc(-c3ccnc(Nc4ccc5c(c4)OCCO5)n3)c2c1	1.47
CC1=C(C(=O)Nc2ccc3[nH]ncc3c2)C(c2ccc3ccccc3c2)CC(=O)N1 (configuration not stated)	1.1
COc1cc2ncn(-c3cc(O[C@@H](C)c4ccccc4Cl)c(C(N)=O)s3)c2cc1OC	1.94
Cn1cc(C=C2C(=O)Nc3cccnc32)c2ccccc21	1.6
NS(=O)(=O)c1ccc(N/N=C2\C(=O)Nc3ccc(C(=O)NCCc4c[nH]cn4)cc32)cc1	1.59
CCn1c(-c2nonc2N)nc2cncc(C(=O)N3CCNCC3)c21	2.21
Fc1cccc(COc2ccc(Nc3ncnc4cc(-c5ccc[nH]5)sc34)cc2Cl)c1	-1.49
Fc1cccc(COc2ccc(Nc3ncnc4sc(-c5cccs5)cc34)cc2Cl)c1	0.01
CS(=O)(=O)CCNCc1nc(-c2ccc3ncnc(Nc4ccc(F)c(Cl)c4)c3c2)cs1	1.1
COc1ccc(-c2coc3ncnc(N)c23)cc1	1.94
COc1ccccc1Nc1ncc(-c2ccccc2)o1	2.82
Cc1cc(O)cc(C)c1/C=C/c1cncc(-c2nn[nH]n2)c1	-2.32
CC1=C(C(=O)Nc2ccc3[nH]ncc3c2)C(c2ccc(F)cc2)NC(=O)N1 (configuration not stated)	1.45
CC(=O)Nc1cccc(C#Cc2cncnc2Nc2ccc(OCc3cccc(F)c3)c(Cl)c2)n1	-0.21
COc1cc2ncn(-c3cc(O[C@H](C)c4ccccc4Cl)c(C(N)=O)s3)c2cc1OC	2.19
CC(C)=Cc1cccc2c1/C(=N/Nc1ccc(S(N)(=O)=O)cc1)C(=O)N2	0.93
